RUN PARAMETERS: rat; liver microsomes; pH 7.4; 15.0 min; 1.0 µM
Task for the reader: assign each of the following compounds its reported log10(half-life).
Scale: decimal log of half-life, half-life in min.

[
  {
    "COMPOUND": "COCCNS(=O)(=O)c1cc(-c2nn3c(C)nnc3c3ccccc23)ccc1C",
    "log10(half-life)": 0.68
  }
]

Quick one: give me log10(half-life) for each item below, same order please.
1. FC(F)(F)c1ccc(CN2CCNc3cc(Nc4ccccc4)ncc3C2)cc1
2. Cn1ccc2c(C(=O)NCC3CCC(=O)N3)nc(-c3ccccc3C#N)cc21 (configuration not stated)

## Output
1: 1.24; 2: 1.34

Quick one: give me log10(half-life) for each item below, same order please.
1. COc1cccc(-c2nc(-c3cc4cc(OC)ccc4[nH]c3=O)no2)c1
2. Cc1ccc(CNc2nc(-c3ccccc3C(F)(F)F)nc3ccccc23)s1

## Output
[1.38, 0.23]

Quick one: give me log10(half-life) for each item below, same order please.
1. CN1CCCC(CC2c3ccccc3Sc3ccccc32)C1 (configuration not stated)
2. c1cc(-c2cc(-c3ccncc3)c3cncn3c2)c2[nH]ncc2c1
3. Cc1ccc(S(=O)(=O)Nc2ccccc2N2CCCCC2)cc1
4. CN(C)CCCN1c2ccc(O)cc2Sc2ccc(Cl)cc21
5. CCOC(=O)c1ccnc2cc(C(OCCN3CCCCC3)c3ccccc3Cl)sc12 (configuration not stated)
6. CCOc1ccc(N2C(=O)c3n[nH]c(-c4cccs4)c3C2c2cccc(F)c2)cc1 (configuration not stated)

## Output
1. 0.15
2. 1.00
3. 0.23
4. 1.03
5. 0.37
6. 1.15
